These entries and their values trace back to paper PMC7708039.

- Target Or Test System: T1, Rad4-Rad23 delta-beta-hairpin2 (<130>) (UniProt P14736;P32628 101-514+528-632;1-77+230-398, internal_change;internal_change)
- T1 sequence 1: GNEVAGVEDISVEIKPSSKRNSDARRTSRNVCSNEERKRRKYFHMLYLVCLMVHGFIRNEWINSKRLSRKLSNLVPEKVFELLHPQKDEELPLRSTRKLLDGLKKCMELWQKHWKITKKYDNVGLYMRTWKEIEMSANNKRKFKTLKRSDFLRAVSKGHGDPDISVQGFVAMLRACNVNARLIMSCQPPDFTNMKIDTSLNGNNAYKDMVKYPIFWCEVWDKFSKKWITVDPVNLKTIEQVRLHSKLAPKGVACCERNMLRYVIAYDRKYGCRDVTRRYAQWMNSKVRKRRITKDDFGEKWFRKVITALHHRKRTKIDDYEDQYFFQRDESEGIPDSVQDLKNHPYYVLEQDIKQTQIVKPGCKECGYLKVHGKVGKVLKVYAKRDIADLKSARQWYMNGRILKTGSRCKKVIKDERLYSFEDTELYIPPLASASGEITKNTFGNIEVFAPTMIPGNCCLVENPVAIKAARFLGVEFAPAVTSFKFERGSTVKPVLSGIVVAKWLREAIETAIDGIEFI
- T1 sequence 2: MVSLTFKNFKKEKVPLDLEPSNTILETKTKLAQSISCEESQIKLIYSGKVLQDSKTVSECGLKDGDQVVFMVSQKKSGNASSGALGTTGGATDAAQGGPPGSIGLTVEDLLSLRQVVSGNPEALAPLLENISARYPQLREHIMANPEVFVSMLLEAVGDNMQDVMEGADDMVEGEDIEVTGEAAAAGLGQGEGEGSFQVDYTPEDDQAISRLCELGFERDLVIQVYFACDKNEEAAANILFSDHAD
- Experiment Summary: competitive EMSA; apparent Kns; 1000 nM cold CH7_NX competitor; EMSA: 5 mM BTP-HCl pH 6.8, 75 mM NaCl, 5 mM DTT, 5% glycerol, 0.74 mM CHAPS, 500 ug/ml BSA, room temperature 20 min, 5 nM labeled DNA, 1000 nM cold CH7_NX
- Experimental Parameters: protein: recombinant; tags: N-terminal His tag on Rad4; copies: 1;1; label: 32P; fully matched; 5' overhang 1 nt at both ends
Measured Attribute: Kd

Prompt: Reported Kd for CCC/GGG matched (dsDNA) DNA 1: TTGACTCGACATCCCCCGCTACAA DNA 2: ATTGTAGCGGGGGATGTCGAGTCA : what is it?
Completion: ~700 nM
